Listed compounds paired with reported normalized growth
# Assay explanation: chemical genetic growth profiling, strain panel (AID 1159580);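 further: tested at 20 µM; growth read once vehicle control cultures reached saturation at 30 °C; 1 = growth at the plate median or of vehicle wells; lower values mean less growth of the strain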
# Test context: S. cerevisiae deletion strains, growth OD, strain wtn01, active compounds read low
Screen size: about 5,500 compounds; about 2,000 (36%) were called active. About 18% were inconclusive and are not listed. Some of the results follow.
Answer field: number only, no words.

Some compounds with recorded normalized growth:
Compound | Observed value
Cc1ccccc1N1C(=O)c2cc(S(N)(=O)=O)c(Cl)cc2NC1C (stereo not drawn) | 0.991
CCc1ccc2c(O)c3c(cc2c1C(=O)OC)C(=O)c1c(O)ccc(O)c1C3=O | 1
CC(=O)OCC(=O)[C@@]1(O)CCC2C3C[C@H](C)C4=CC(=O)C=CC4(C)C3[C@@H](O)CC21C (stereo partly drawn) | 1.01
C[C@@H]1CCC2[C@](C)(CO)[C@@H](O)CC[C@]2(C)[C@@]12CC[C@@](CO)(CCO)O2 (stereo partly drawn) | 0.98
CC12CCC3C(CCC4(O)CC(O)CCC34/C=N/NC(N)=O)C1(O)CCC2C1=CC(=O)OC1 (stereo not drawn) | 1.01
CC1CCCC(C)N1NC(=O)c1ccc(Cl)c(S(N)(=O)=O)c1 (stereo not drawn) | 0.989

// Input: C[C@]12CC[C@H](O)C[C@H]1CCC1C2CC[C@]2(C)[C@@H](C3=CC(=O)OC3)[C@@H](O)C[C@]12O (stereo partly drawn) . Output its normalized growth only.
1.02

// Input: C[C@H]1OC(O[C@H]2[C@@H](O)CC(O[C@H]3[C@@H](O)C[C@H](O[C@H]4CC[C@]5(C)C6CC[C@]7(C)[C@@H](C8=CC(=O)OC8)[C@@H](O)C[C@]7(O)[C@@H]6CC[C@@H]5C4)O[C@@H]3C)O[C@@H]2C)C[C@H](O)C1O (stereo partly drawn) . Output its normalized growth only.
0.98

// Input: NS(=O)(=O)c1cc2c(cc1C(F)(F)F)NC(Cc1ccccc1)NS2(=O)=O (stereo not drawn) . Output its normalized growth only.
1.01

// Input: CC1(C)C(O)CC(=O)C2(C)C1CC(O)C1(C)C2CCC2(C)C(c3ccoc3)OC(=O)C3OC321 (stereo not drawn) . Output its normalized growth only.
0.997

// Input: C[C@H]1O[C@@H](O[C@H]2[C@@H](O)C[C@H](O[C@H]3[C@@H](O)C[C@H](O[C@H]4CC[C@]5(C)C6CC[C@]7(C)[C@@H](C8=CC(=O)OC8)CC[C@]7(O)C6CC[C@@H]5C4)O[C@@H]3C)O[C@@H]2C)C[C@H](O)[C@@H]1O (stereo partly drawn) . Output its normalized growth only.
1

// Input: Oc1ccc2c3c1OC1[C@@H](O)CC[C@@]4(O)[C@@H](C2)N(CC2CCC2)CC[C@]314 (stereo partly drawn) . Output its normalized growth only.
1.02

// Input: CC1Cc2ccccc2N1NC(=O)c1ccc(Cl)c(S(N)(=O)=O)c1 (stereo not drawn) . Output its normalized growth only.
1.02

====

# Assay explanation: chemical genetic growth profiling, strain panel (AID 1159580);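 further: tested at 20 µM; growth read once vehicle control cultures reached saturation at 30 °C; 1 = growth at the plate median or of vehicle wells; lower values mean less growth of the strain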
# Test context: S. cerevisiae deletion strains, growth OD, locus YJL092W, strain hpr5, active compounds read low
Among all 5,500 compounds or so, about 2,000 (36%) were called active. Not shown: some 18% with an inconclusive outcome. Some of the results follow.
Listed compounds paired with reported normalized growth
Answer field: number only, no words.

Some compounds with recorded normalized growth:
Compound | normalized growth
COC1C(O)C(O[C@H]2CC[C@]3(C=O)C4C(CC[C@]3(O)C2)[C@@]2(O)CC[C@H](C3=CC(=O)OC3)[C@@]2(C)C[C@H]4OC(C)=O)OC(C)C1OC(C)=O (stereo not given in full) | 1.02
Oc1ccc([C@H]2Oc3cc(O)cc(O)c3C[C@H]2O)cc1 | 0.983
C[C@H]1O[C@H](O[C@H]2[C@H](O)[C@@H](O)[C@@H](O[C@H]3[C@H](O)[C@@H](O)C(O)O[C@@H]3CO)O[C@@H]2CO)[C@H](O)[C@@H](O)[C@@H]1N[C@H]1C=C(CO)[C@@H](O)[C@H](O)[C@H]1O (stereo not given in full) | 0.977
CC1=CC(=O)C2C(C)(C)CCC[C@]2(C)[C@@]1(O)CCc1ccoc1 (stereo not given in full) | 1
NC[C@H]1O[C@H](O[C@H]2[C@H](O)[C@@H](O[C@H]3O[C@H](CO)[C@@H](O)[C@H](N)[C@H]3O)[C@H](N)C[C@@H]2N)[C@H](N)[C@@H](O)[C@@H]1O | 0.986

// Input: CC(=O)OC1CC[C@@]2(C)C(CCC3C2CC[C@]2(C)C(C4=CC(=O)OC4)C(OC(C)=O)CC32O)C1 (stereo not given in full) . Output its normalized growth only.
0.986

// Input: COC(=O)[C@H]1[C@H]2C[C@H]3c4[nH]c5cc(OC)ccc5c4CCN3C[C@H]2C[C@@H](OC(=O)c2cc(OC)c(OC)c(OC)c2)[C@@H]1OC . Output its normalized growth only.
1.01

// Input: CCc1ccc2c(O)c3c(cc2c1C(=O)OC)C(=O)c1c(O)ccc(O)c1C3=O . Output its normalized growth only.
0.976

// Input: C[C@@H]1O[C@@H](O[C@H]2CC[C@]3(C=O)C4CC[C@]5(C)[C@@H](C6=CC(=O)OC6)CC[C@]5(O)C4CC[C@]3(O)C2)[C@H](O)[C@H](O)[C@H]1O (stereo not given in full) . Output its normalized growth only.
1

// Input: CC1(C)Oc2ccc3ccc(=O)oc3c2CC1O (stereo not given) . Output its normalized growth only.
0.989

====

# Assay explanation: chemical genetic growth profiling, strain panel (AID 1159580);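 further: tested at 20 µM; growth read once vehicle control cultures reached saturation at 30 °C; 1 = growth at the plate median or of vehicle wells; lower values mean less growth of the strain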
# Test context: S. cerevisiae deletion strains, growth OD, locus YEL061C, strain CIN8, active compounds read low
Out of some 5,500 compounds screened, about 2,000 (36%) were called active. Not shown: some 18% with an inconclusive outcome. The list shows a part of the results.
Quantity: normalized growth
Answer field: number only, no words.

Some compounds with recorded normalized growth:
Compound | normalized growth
COc1cc(C(=O)O)cc(OC)c1OC | 1.01
Nc1ccc(S(=O)(=O)Nc2ncccn2)cc1 | 0.988
CCCc1nn(C)c2c(=O)[nH]c(-c3cc(S(=O)(=O)N4CCN(C)CC4)ccc3OCC)nc12 | 1.02
Cc1ccc(S(=O)(=O)N2CCC(N)=N2)cc1 | 0.997
CCOC(=O)/C(C#N)=C/N=C(N/N=C\c1c(Cl)cccc1Cl)SC | 0.8
NC(=O)c1ccc([N+](=O)[O-])cc1Cl | 0.976

// Input: C[C@H]1O[C@@H](O[C@H]2[C@@H](O)C[C@H](O[C@H]3[C@@H](O)C[C@H](O[C@H]4CC[C@]5(C)C6C[C@@H](O)[C@]7(C)[C@@H](C8=CC(=O)OC8)CC[C@]7(O)C6CC[C@@H]5C4)O[C@@H]3C)O[C@@H]2C)C[C@H](O)[C@@H]1O (stereo partly drawn) . Output its normalized growth only.
1

// Input: O=C1NC(=S)NC(=O)C1=Cc1cccc2ccccc12 . Output its normalized growth only.
0.976

// Input: C/C=C(/C)C(=O)O[C@@H]1Cc2c(ccc3ccc(=O)oc23)OC1(C)C . Output its normalized growth only.
0.95

// Input: CC(C)=CC1C(CO)C1(C)C (stereo not drawn) . Output its normalized growth only.
1.01

// Input: OCC(O)Cn1c2ccccc2c2ccccc21 (stereo not drawn) . Output its normalized growth only.
0.986

// Input: NNC(=O)c1cccnc1Oc1ccccc1 . Output its normalized growth only.
1.02

// Input: CC[C@@]1(O)C(=O)OCc2c1cc1n(c2=O)Cc2cc3ccccc3nc2-1 . Output its normalized growth only.
0.947

// Input: Cc1c(C(N)=O)cc([N+](=O)[O-])cc1[N+](=O)[O-] . Output its normalized growth only.
0.99

// Input: CC(=O)O[C@@H]1c2c(ccc3ccc(=O)oc23)OC(C)(C)[C@@H]1OC(=O)CC(C)C . Output its normalized growth only.
0.978

// Input: CCOC(=O)CC(SP(=S)(OC)OC)C(=O)OCC (stereo not drawn) . Output its normalized growth only.
1.01

// Input: CO[C@H]1[C@H](O)[C@@H](O[C@H]2CC[C@]3(C=O)C4CC[C@]5(C)[C@@H](C6=CC(=O)OC6)CC[C@]5(O)C4CC[C@@H]3C2)O[C@@H](C)[C@@H]1O (stereo partly drawn) . Output its normalized growth only.
0.984

// Input: COC(=O)C[C@H]1C(C)(C)[C@@H](O)[C@@H]2CC3=C4CC(O)O[C@@H](c5ccoc5)[C@]4(C)CCC3[C@@]1(C)C2=O (stereo partly drawn) . Output its normalized growth only.
1.01

// Input: CCCCCC(O)C1C(=O)OC(C)C(O)/C=C/C=C/C=C/C=C/C=C(\C)C(O)CC(O)CC(O)CC(O)CC(O)CC(O)CC1O (stereo not drawn) . Output its normalized growth only.
1

// Input: Cc1c(OCC(F)(F)F)ccnc1CS(=O)c1nc2ccccc2[nH]1 (stereo not drawn) . Output its normalized growth only.
0.999

// Input: O=C(O)C1CC(=O)N(Cc2ccccc2Cl)C1 (stereo not drawn) . Output its normalized growth only.
1.03

// Input: COC(CNc1cccc(Cl)c1C#N)OC . Output its normalized growth only.
0.971

// Input: NC(=NS(=O)(=O)c1cc(Cl)c(Oc2ccc([N+](=O)[O-])cc2Cl)c(Cl)c1)c1cccnc1 . Output its normalized growth only.
1.01

// Input: CO[C@@H]1[C@@H](OC(N)=O)[C@@H](O)[C@H](Oc2ccc3c(O)c(NC(=O)c4ccc(O)c(CC=C(C)C)c4)c(=O)oc3c2C)OC1(C)C . Output its normalized growth only.
0.992

// Input: NCCCCN . Output its normalized growth only.
1.01

// Input: COc1cc(C(=O)N2CCOCC2)cc(OC)c1OC . Output its normalized growth only.
1

// Input: Cc1ccc(SC(=O)c2cccnc2Oc2ccccc2)cc1 . Output its normalized growth only.
0.965
